// provenance: PubChem BioAssay AID1963976

Provide the recorded viability, T/C for the entries that follow.
System: 435261-313-R-J1-PDC tumor spheroid viability;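 further: spheroids exposed to compounds for 7 days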
Test name: Anticancer human tumor 435261-313-R-J1-PDC patient-derived colon adenocarcinoma cell line growth inhibition [PI3K]
Run conditions: second compound 0.00316 µM; first compound 0.1 µM; active compounds read low; spheroids with HUVEC and MSC
Answer in %, number only, no unit symbol.

Recorded viability, T/C for Cn1ncc(Cl)c1-c1cc(C(=O)NC(CN)Cc2cccc(F)c2)sc1Cl (stereo unspecified) + CC(Nc1ccc2c(c1)OCCn1cc(N3C(=O)OCC3C(F)F)nc1-2)C(N)=O , please?
84.9

Please give the measured viability, T/C for this compound: CC1(C)CCC(Nc2ncc(C(F)(F)F)c(-c3c[nH]c4c(P(C)(C)=O)c(C#N)ccc34)n2)CN1 (stereo unspecified) + CC(Nc1ccc2c(c1)OCCn1cc(N3C(=O)OCC3C(F)F)nc1-2)C(N)=O
58.8

# viability, T/C lookup, item CC(C)n1nc(-c2ccc3oc(N)nc3c2)c2c(N)ncnc21 + COc1c(OCCCN2CCOCC2)ccc2c3n(c(=NC(=O)c4cnc(N)nc4)nc12)CCN3
12.1

Need viability, T/C of CNC(=O)c1ccc(N2C(=S)N(c3ccc(C#N)c(C(F)(F)F)c3)C(=O)C2(C)C)cc1F + COc1c(OCCCN2CCOCC2)ccc2c3n(c(=NC(=O)c4cnc(N)nc4)nc12)CCN3 , thanks.
80.3

For the compound CC(=O)c1c(C)c2cnc(Nc3ccc(N4CCNCC4)cn3)nc2n(C2CCCC2)c1=O + CC(Nc1ccc2c(c1)OCCn1cc(N3C(=O)OCC3C(F)F)nc1-2)C(N)=O , what viability, T/C is on record?
59.2

Give its viability, T/C value. Item: Cn1ncnc1[C@H]1c2n[nH]c(=O)c3cc(F)cc(c23)N[C@@H]1c1ccc(F)cc1 + COc1c(OCCCN2CCOCC2)ccc2c3n(c(=NC(=O)c4cnc(N)nc4)nc12)CCN3
39

Param item = CC(Cn1ccc(-c2ccc(C#N)c(Cl)c2)n1)NC(=O)c1cc(C(C)O)[nH]n1 (stereo unspecified) + CC(Nc1ccc2c(c1)OCCn1cc(N3C(=O)OCC3C(F)F)nc1-2)C(N)=O ; retrieve measured viability, T/C.
79.1

Which measured viability, T/C value corresponds to Cn1nccc1Nc1nccc(-c2ccn(C(CO)c3ccc(Cl)c(F)c3)c(=O)c2)n1 (stereo unspecified) + COc1c(OCCCN2CCOCC2)ccc2c3n(c(=NC(=O)c4cnc(N)nc4)nc12)CCN3 ?
56.1

Entry under review: CC1(C)CCC(CN2CCN(c3ccc(C(=O)NS(=O)(=O)c4ccc(NCC5CCOCC5)c([N+](=O)[O-])c4)c(Oc4cnc5[nH]ccc5c4)c3)CC2)=C(c2ccc(Cl)cc2)C1 + CC(Nc1ccc2c(c1)OCCn1cc(N3C(=O)OCC3C(F)F)nc1-2)C(N)=O . Reported viability, T/C?
90.5

GET /values?readout=viability, T/C&item= Cn1ncnc1[C@H]1c2n[nH]c(=O)c3cc(F)cc(c23)N[C@@H]1c1ccc(F)cc1 + CC(Nc1ccc2c(c1)OCCn1cc(N3C(=O)OCC3C(F)F)nc1-2)C(N)=O
69.4

Recorded viability, T/C for C#Cc1c(F)ccc2cc(O)cc(-c3ncc4c(N5CC6CCC(C5)N6)nc(OCC56CCCN5CC(F)C6)nc4c3F)c12 (stereo unspecified) + CC(Nc1ccc2c(c1)OCCn1cc(N3C(=O)OCC3C(F)F)nc1-2)C(N)=O , please?
91.2
